# Test system: DU-145
# ASSAY_DETAILS: Antiproliferative activity against human DU145 cells by MTT assay
# Format: functional, cell-based
Exercise: state measured IC50 for each of the molecules provided.

// query What value of measured IC50 is listed for c1ccc2c(-c3c[nH]c4ccccc34)nc(N3CCOCC3)nc2c1 ?
// result > 50 µg/mL

// query Field request: IC50 | item: Cn1cc(-c2nc(N3CCNCC3)nc3ccccc23)c2ccccc21
// result > 50 µg/mL

// query # query: IC50 of entry COc1ccc(-c2nc(N3CCN(C)CC3)nc3ccccc23)c(OC)c1
// result > 50 µg/mL

// query Look up IC50: CN1CCN(c2nc(-c3c[nH]c4ccccc34)c3ccccc3n2)CC1
// result 20.8 µg/mL

// query Quick one: IC50 of Fc1ccc(N2CCN(c3nc(-c4c[nH]c5ccccc45)c4ccccc4n3)CC2)cc1 ?
// result > 50 µg/mL

// query What measured IC50 goes with COc1cc(OC)c(-c2nc(N3CCNCC3)nc3ccccc23)c(OC)c1 ?
// result > 50 µg/mL

// query For the molecule shown here, c1ccc2c(-c3c[nH]c4ccccc34)nc(N3CCNCC3)nc2c1 , give the reported IC50.
// result 12.5 µg/mL

// query Endpoint output: IC50 of c1ccc2c(-c3c[nH]c4ccccc34)nc(N3CCCCC3)nc2c1 . Value?
// result > 50 µg/mL

// query I would be grateful if you could share the reported IC50 for COc1ccc(-c2nc(N3CCNCC3)nc3ccccc23)c(OC)c1 .
// result > 50 µg/mL

// query Can you share its IC50? I mean this molecule: COc1cc(OC)c(-c2nc(N3CCN(C)CC3)nc3ccccc23)c(OC)c1
// result > 50 µg/mL

// query Entry CN1CCN(c2nc(-c3cn(C)c4ccccc34)c3ccccc3n2)CC1 has what IC50?
// result > 50 µg/mL

Recorded values, source ChEMBL document CHEMBL1138596.
